assay: Pharmacokinetic study in SD rats; format: in vivo; settings: Sprague-Dawley, rat, plasma, iv, 5 mg/kg
ENDPOINT LABEL: half-life (h)
Quick reminder: number only, in h, skip the unit.

input: Which value of half-life has been reported for COc1ccc2oc(-c3ccc4nc(N)oc4c3)c/c(=N\c3ccccc3NC(=O)CCN)c2c1 [Compound 12j] in the records?
output: 14.1

---

assay: Pharmacokinetic study in SD rats; assay type: in vivo; conditions: Sprague-Dawley, rat, plasma, po, 20 mg/kg
ENDPOINT LABEL: Cmax (ng/mL)
Kindly provide the numeric value in ng/mL only, without the unit symbol.

input: Which value of Cmax has been reported for COc1ccc2oc(-c3ccc4nc(N)oc4c3)c/c(=N\c3ccccc3NC(=O)CCN)c2c1 [Compound 12j] in the records?
output: 1150

Origin of measurements: paper PMC13366236
